Source of measurements: patent US20160002357A1

- system.tested: T1, P-cadherin-ECD1-3-Fc protein (human P-cadherin-Fc) (human, UniProt P22223 108-440)
- T1 construct: Construct was expressed with signal peptide and pro-peptide (PACE co-transfected to process the propeptide); not shown: hinge and CH2 and CH3 domains of human IgG1
- experiment.notes: phage scFv ELISA, coated P-cadherin-ECD1-3-Fc
For each record, check the reported Human P-cadherin-Fc binding (OD450): if it is below 1 OD450 write True, else write False.

Exercise: Please check: Human P-cadherin-Fc binding (OD450) for anti-P-cadherin scFv 153 alanine-mutant H3.7-Ala (scFv, V domains shown, scFv on phage) VH: EVQLVQSGAEVKKPGASVKVSCKASGYTFTSYGISWVRQAPGQGLEWMGWISAYNGNTNYAQKLQGRVTMTTDTSTSTAYMELRSLRSDDTAVYYCATIDTANAAGIWGQGTMVTVSS VL: QSVLTQPPSVSAAPGQKVTISCSGSSSNIGNNYVSWYQQLPGTAPKLLIYDNNKRPSGIPDRFSGSKSGTSATLGITGLQTGDEADYYCGTWDSSLSGVVFGGGTKLTVL , strictly under 1 OD450 or not?
Solution: True
